test: Tmax in Sprague-Dawley rat at 20 mg/kg, po measured upto 24 hrs; type: ADME, organism-based; settings: in vivo
value kind: Tmax (h)

(1) O=C(N/N=C/c1ccc([N+](=O)[O-])s1)c1ccc(OCCCCCCN2CCCCC2)cc1
(2) O=C(N/N=C/c1ccc([N+](=O)[O-])o1)c1ccc(OCCCCCCN2CCCCC2)cc1
Request: Pick the one with the larger Tmax: 1 vs 2 # reply format: chosen label
Response: 2

----------
system: Mus musculus; assay: Anti-fibrotic activity in bleomycin-induced C57BL/6 mouse model of pulmonary fibrosis assessed as reduction in ratio of dendritic cells at 30 mg/kg, po administered once daily by flow cytometry analysis (reference value: 20.21%); format: functional; design: scale not given: the % may be the effect or the level left
value kind: Activity (%)
Give just the numeric value; % need not be written.

Here is how some compounds turned out for Activity.
compound | target entity | Activity, %
O=C(N/N=C/c1ccc([N+](=O)[O-])o1)c1ccc(OCCCCCCN2CCCCC2)cc1 | Mus musculus | 4.62
O=C(N/N=C/c1ccc([N+](=O)[O-])s1)c1ccc(OCCCCCCN2CCCCC2)cc1 | Mus musculus | 4.59
COC(=O)c1ccc2c(c1)NC(=O)/C2=C(\Nc1ccc(N(C)C(=O)CN2CCN(C)CC2)cc1)c1ccccc1 | Mus musculus | 20.44

# next compound below
Request: Input O=C(N/N=C/c1ccc([N+](=O)[O-])o1)c1ccc(O)cc1 [NIFUROXAZIDE] , output reported Activity.
Response: 10.8
